Just for reference, ChEMBL document CHEMBL5233261 is where these values come from.

- Tested on: MCF7
- assay summary: Anticancer activity against human MCF7 cells assessed as cell growth inhibition incubated for 24 hrs by ELISA assay
- Type: functional, cell-based
- measurement conditions: MCF7, 24 h

given smiles	IC50
COc1cc2ncnc(Nc3ccc(Cn4cc(-c5ccccc5)nn4)cc3)c2cc1OC	20.7 µM

* * *

- Test system: HT-29
- assay summary: Anticancer activity against human HT-29 cells assessed as cell growth inhibition incubated for 48 hrs by SRB assay
- Type: functional, cell-based
- measurement conditions: HT-29, 48 h

given smiles	system tested	IC50 / µM
Cc1ccc(-c2nn(-c3ccccc3)cc2/C=C/C(=O)OCc2cn(-c3ccc([N+](=O)[O-])cc3)nn2)cc1	HT-29	4.49

* * *

- System: HCT-116
- assay summary: Anticancer activity against human HCT-116 cells assessed as cell growth inhibition incubated for 48 hrs by SRB assay
- Assay type: functional, cell-based
- measurement conditions: HCT-116, 48 h

given smiles	IC50 / µM
Cc1ccc(-c2nn(-c3ccccc3)cc2/C=C/C(=O)OCc2cn(-c3ccc([N+](=O)[O-])cc3)nn2)cc1	3.59
